Test system: Mel-DCC-11-R
measurementProtocol: cell viability relative to DMSO control (fraction of DMSO control); higher = less cytotoxic, active = 0.8 or less
experimentalConditions: 1 µM; 120 h; vemurafenib co-treatment 8 µM
cell viability overview
Form: value (number only, do not type unit).

compound	cell viability
C[C@]12CC[C@H](O)CC1=CC[C@@H]1[C@@H]2CC[C@]2(C)C(c3cccnc3)=CC[C@@H]12	1.16

Turning now to a further record.
cell viability in this record for `CNC(=O)c1cc(Oc2ccc(NC(=O)Nc3ccc(Cl)c(C(F)(F)F)c3)c(F)c2)ccn1` : 0.82

----------
Documented cell viability across a set of compounds
Tested on: Mel-DCC-11
measurementProtocol: cell viability relative to DMSO control (fraction of DMSO control); higher = less cytotoxic, active = 0.5 or less
experimentalConditions: 1 µM; 120 h
Answer as a number with no unit attached.

                                   compound  measuredmetric  testvalue
0  CN1CCN(c2ccc3nc(-c4c(N)c5c(F)cccc5[nH]c4=O)[nH]c3c2)CC1  cell viability       1.11
1  c1cn2cc(-c3ccc4cn[nH]c4c3)nc(Nc3ccc(N4CCOCC4)cc3)c2n1  cell viability      0.988
2  C#Cc1cccc(Nc2ncnc3cc(OCCOC)c(OCCOC)cc23)c1  cell viability       1.26
3      N#Cc1ccc(C(c2ccc(C#N)cc2)n2cncn2)cc1  cell viability       1.01
4  Cc1nc2ccc(CN(C)c3ccc(C(=O)N[C@@H](CCC(=O)O)C(=O)O)s3)cc2c(=O)[nH]1  cell viability          1

# cell viability (compound: O=C(NC(Cc1cc(=O)[nH]c2ccccc12)C(=O)O)c1ccc(Cl)cc1 (stereo not drawn) [Rebamipide] ) is 1.15

Per the record, `Nc1c2ccccc2nc2ccccc12` has cell viability of 1.43

The compound identified as `COc1ccc(-c2cc(=S)ss2)cc1` registered its cell viability at 1.28

Value of cell viability reported for the compound `CC(C)=CCC/C(C)=C/CC/C(C)=C/CC/C(C)=C/CC1=C(C)C(=O)c2ccccc2C1=O` is 1.25

Form field cell viability, entry `CC#CC(=O)N1CCC[C@H]1c1nc(-c2ccc(C(=O)Nc3ccccn3)cc2)c2c(N)nccn12` : 1.12

cell viability in this record for `Cc1ccc(NC(=O)c2ccc(CN3CCN(C)CC3)cc2)cc1Nc1nccc(-c2cccnc2)n1` : 1.15

So for `Cc1cc(Nc2cc(N3CCN(C)CC3)nc(Sc3ccc(NC(=O)C4CC4)cc3)n2)n[nH]1` , the logged cell viability turned out to be 1.56

cell viability reported for this compound `O=C(CCBr)N1CCN(C(=O)CCBr)CC1` : 0.709

Record `CC(C)(S)[C@@H](N)C(=O)O` . Reported cell viability: 1.22

According to the records, this compound `Cc1cc(Nc2ncc(Cl)c(Nc3ccccc3S(=O)(=O)C(C)C)n2)c(OC(C)C)cc1C1CCNCC1` displays cell viability of 0.955

The value of cell viability measured for the compound `CC(=O)c1c(C)c2cnc(Nc3ccc(N4CCNCC4)cn3)nc2n(C2CCCC2)c1=O` turned out to be 0.763

The measured cell viability associated with Cl.Cl.O=C1c2c(O)ccc(O)c2C(=O)c2c(NCCNCCO)ccc(NCCNCCO)c21 [Mitoxantrone hydrochloride] reads 1.08

Value of cell viability reported for the compound `Cc1ccc(NC(=O)C2(c3ccc4c(c3)OC(F)(F)O4)CC2)nc1-c1cccc(C(=O)O)c1` is 1.12
